Give drug sensitivity score for every item shown.
- Test system: MDA-MB-453
- protocol_notes: drug sensitivity score (DSS), single agent (DSS (weighted AUC score)); higher = more sensitive (stronger viability decrease); extreme values may be limits of the assay
- experimental_conditions: BLU9931 0 nM; 72 h
Numbers only.

C[C@]12C=CC(=O)C=C1CC[C@@H]1[C@@H]2[C@@H](O)C[C@@]2(C)[C@H]1CC[C@]2(O)C(=O)CO [Prednisolone] = 8.2
O=c1[nH]c(C2CCCN2)nc2c1oc1ccc(Cl)cc12 (stereo unspecified) = 0
O=C(Nc1ccc2[nH]nc(-c3ccncc3)c2c1)[C@@H]1CCN(CC(=O)N2CCN(c3ccc(-c4ncccn4)cc3)CC2)C1 = 3.4
N#CC1(c2ccc(NC(=O)c3cccnc3NCc3ccncc3)cc2)CCCC1 [Apatinib] = 0.7
C=CC(=O)N1CCC(Oc2cc3c(Nc4ccc(Cl)c(Cl)c4F)ncnc3cc2OC)CC1 [Poziotinib] = 19.1
OC[C@H]1O[C@@H](n2cnc3c2N=CNC[C@H]3O)C[C@@H]1O [Pentostatin] = 1
C[C@]12CC[C@H](O)CC1=CC[C@@H]1[C@@H]2CC[C@]2(C)C(c3cccnc3)=CC[C@@H]12 [Abiraterone] = 0
O=c1[nH]c(=O)n([C@H]2C[C@H](O)[C@@H](CO)O2)cc1C(F)(F)F [Trifluridine] = 2.6

# map each molecule to its drug sensitivity score
1. COCCNCc1ccc(-c2cc3nccc(Oc4ccc(NC(=O)C5(C(=O)Nc6ccc(F)cc6)CC5)cc4F)c3s2)nc1 [Sitravatinib]
2. Cc1c(-c2c(-c3ccc(F)o3)sc3ncnc(O[C@H](Cc4ccccc4OCc4ccnn4CC(F)(F)F)C(=O)O)c23)ccc(OCCN2CCN(C)CC2)c1Cl
3. CC(=O)[C@]1(O)Cc2c(O)c3c(c(O)c2[C@@H](O[C@H]2C[C@H](N)[C@H](O)[C@H](C)O2)C1)C(=O)c1ccccc1C3=O [Idarubicin]
4. CN1CCN(C(=O)c2ccc3cc(CCNc4ncnc5ccc(C#N)cc45)ccc3c2)CC1 [Senexin B]
5. Nc1ccn([C@@H]2O[C@H](CO)[C@@H](O)[C@@H]2O)c(=O)n1 [Cytarabine]
6. CNC(=O)c1ccc(-c2cnc3ncc(Cc4ccc5ncccc5c4)n3n2)cc1F [Capmatinib]
7. C[C@]1(O)C[C@@H](c2nc(-c3ccc4ccc(-c5ccccc5)nc4c3)c3c(N)nccn32)C1 [Linsitinib]

1: 0.6; 2: 4.2; 3: 5.9; 4: 2.4; 5: 0.8; 6: 0; 7: 3.6

Just so you know, measured drug sensitivity score for FC(F)c1nc2ccccc2n1-c1nc(N2CCOCC2)nc(N2CCOCC2)n1 [ZSTK474] came out at 14.9

* * *

- System: MDA-MB-453
- protocol_notes: drug sensitivity score (DSS), single agent (DSS (weighted AUC score)); higher = more sensitive (stronger viability decrease); extreme values may be limits of the assay
- experimental_conditions: BLU9931 0 nM; 72 h
endpoint: drug sensitivity score
Give bare numbers.

C[C@@H](Oc1cc(-c2cnn(C3CCNCC3)c2)cnc1N)c1c(Cl)ccc(F)c1Cl = 0
CCCc1cc(C)[nH]c(=O)c1CNC(=O)c1cc(-c2ccnc(N3CCN(C)CC3)c2)cc2c1cnn2C(C)C = 0
NC(=O)c1cccc(-c2cccc(OC(=O)NC3CCCCC3)c2)c1 = 0
COc1cc(C(=O)O)ccc1NC(=O)[C@@H]1N[C@@H](CC(C)(C)C)[C@](C#N)(c2ccc(Cl)cc2F)[C@H]1c1cccc(Cl)c1F = 1.1
CO[C@H]1C[C@@H]2CC[C@@H](C)[C@@](O)(O2)C(=O)C(=O)N2CCCC[C@H]2C(=O)O[C@H]([C@H](C)C[C@@H]2CC[C@@H](OCCO)[C@H](OC)C2)CC(=O)[C@H](C)/C=C(\C)[C@@H](O)[C@@H](OC)C(=O)[C@H](C)C[C@H](C)/C=C/C=C/C=C/1C = 9.5
CN(Cc1cnc2nc(N)nc(N)c2n1)c1ccc(C(=O)N[C@@H](CCC(=O)O)C(=O)O)cc1 [Methotrexate] = 1
CNC(=O)c1ccc2cc([C@@]3(O)CCn4cncc43)ccc2c1 = 0
CN(C)Cc1c(C(=O)NCCOc2ccc(C(=O)NO)cc2)oc2ccccc12 = 22.6

# map each compound to its drug sensitivity score
1. COc1cc(CCc2cc(NC(=O)c3ccc(N4CC(C)NC(C)C4)cc3)n[nH]2)cc(OC)c1 (stereo not given)
2. CC(=O)O[C@]1(C(C)=O)CC[C@H]2[C@@H]3C=C(C)C4=CC(=O)CC[C@]4(C)[C@H]3CC[C@@]21C [Megestrol acetate]
3. O=C(/C=C\n1cnc(-c2cc(C(F)(F)F)cc(C(F)(F)F)c2)n1)NNc1ccccn1 [Verdinexor]

1. 0.3
2. 2.2
3. 4.7

* * *

- Test system: MDA-MB-453
- protocol_notes: drug sensitivity score (DSS), in combination with BLU9931 (DSS (weighted AUC score)); higher = more sensitive (stronger viability decrease); extreme values may be limits of the assay
- experimental_conditions: BLU9931 100 nM; 72 h
Give drug sensitivity score for every item shown.
Numbers only.

Cc1cn(-c2cc(NC(=O)c3ccc(C)c(Nc4nccc(-c5cccnc5)n4)c3)cc(C(F)(F)F)c2)cn1 [Nilotinib] = 1.5
COc1cc2nccc(Oc3ccc(NC(=O)NC4CC4)c(Cl)c3)c2cc1C(N)=O [Lenvatinib] = 0.9
CO[C@H]1C[C@@H]2CC[C@@H](C)[C@@](O)(O2)C(=O)C(=O)N2CCCC[C@H]2C(=O)O[C@H]([C@H](C)C[C@@H]2CC[C@@H](OC(=O)C(C)(CO)CO)[C@H](OC)C2)CC(=O)[C@H](C)/C=C(\C)[C@@H](O)[C@@H](OC)C(=O)[C@H](C)C[C@H](C)/C=C/C=C/C=C/1C [Temsirolimus] = 14.8
CNC(=O)[C@@H](NC(=O)[C@H](CC(C)C)[C@H](O)C(=O)NO)C(C)(C)C [Marimastat] = 0.8
CCC1=C[C@@H]2CN(C1)Cc1c([nH]c3ccccc13)[C@@](C(=O)OC)(c1cc3c(cc1OC)N(C)[C@H]1[C@@](O)(C(=O)OC)[C@H](OC(C)=O)[C@]4(CC)C=CCN5CC[C@]31[C@@H]54)C2 [Vinorelbine] = 19
Nc1nc(NC2CC2)cc(-c2cccc(Cl)c2Cl)n1 [TH588] = 1.7
CN1CCN(C2CCN(C(=O)Nc3cc(Oc4ccc(NC(=O)C5(C(=O)Nc6ccc(F)cc6)CC5)c(F)c4)ccn3)CC2)CC1 [Golvatinib] = 0
CNC(=O)c1nn(C)c2c1C(C)(C)Cc1cnc(Nc3ccc(N4CCN(C)CC4)cc3)nc1-2 [Milciclib] = 7.5
CC(C)(C)c1cc(NC(=O)Nc2ccc(Oc3ccnc4[nH]c(=O)cnc34)cc2F)n(-c2ccccc2)n1 = 6.7
CC/C(=C(\c1ccccc1)c1ccc(OCCN(C)C)cc1)c1ccccc1 [Tamoxifen] = 2.4

# map each molecule to its drug sensitivity score
1. CC(=O)Nc1ccc(C(=O)Nc2ccccc2N)cc1 [Tacedinaline]
2. CON(C)C(=O)N1N=C(c2cc(F)ccc2F)S[C@@]1(CCCN)c1ccccc1 [Filanesib]

[0.4, 15.3]

# map each molecule to its drug sensitivity score
1. N#CCNC(=O)c1ccc(-c2ccnc(Nc3ccc(N4CCOCC4)cc3)n2)cc1 [Momelotinib]
2. CN1CCC(CNc2ccc3ncc(-c4cccc(OC(F)(F)F)c4)n3n2)CC1 [SGI-1776]

2.2
5.8

* * *

- Test system: MDA-MB-453
- protocol_notes: drug sensitivity score (DSS), single agent (DSS (weighted AUC score)); higher = more sensitive (stronger viability decrease); extreme values may be limits of the assay
- experimental_conditions: BLU9931 0 nM; 72 h
Give drug sensitivity score for every item shown.
Numbers only.

# map each molecule to its drug sensitivity score
1. Cc1cc2c(F)c(Oc3ncnn4cc(OC[C@@H](C)O)c(C)c34)ccc2[nH]1
2. CCOC(=O)CCNc1cc(N2CCc3ccccc3CC2)nc(-c2ccccn2)n1
3. O=C(Nc1ccc(OC(F)(F)Cl)cc1)c1cnc(N2CC[C@@H](O)C2)c(-c2cc[nH]n2)c1
4. Cc1cccc(-c2[nH]c(CNc3ccccc3F)nc2-c2ccc3ncnn3c2)n1

1: 0; 2: 13.2; 3: 3.4; 4: 5.2

* * *

- System: MDA-MB-453
- protocol_notes: drug sensitivity score (DSS), single agent (DSS (weighted AUC score)); higher = more sensitive (stronger viability decrease); extreme values may be limits of the assay
- experimental_conditions: BLU9931 0 nM; 72 h
endpoint: drug sensitivity score
Answers are plain numbers.

CC(C)C[C@H](NC(=O)[C@@H](COC(C)(C)C)NC(=O)[C@H](Cc1ccc(O)cc1)NC(=O)[C@H](CO)NC(=O)[C@H](Cc1c[nH]c2ccccc12)NC(=O)[C@H](Cc1cnc[nH]1)NC(=O)[C@@H]1CCC(=O)N1)C(=O)N[C@@H](CCCNC(=N)N)C(=O)N1CCC[C@H]1C(=O)NNC(N)=O = 0

# map each molecule to its drug sensitivity score
1. CCN1C(=O)CNc2ncc(-c3ccc(-c4nc[nH]n4)nc3C)nc21
2. COC(=O)c1ccc([C@H]2c3[nH]c4ccccc4c3C[C@H](C(=O)OC)N2C(=O)CCl)cc1
3. Nc1nc2[nH]cnc2c(=S)[nH]1
4. Cn1cc(-c2cnn3c(N)c(Br)c([C@@H]4CCCNC4)nc23)cn1
5. O=C(Nc1cnn2ccc(N3CCC[C@@H]3c3cc(F)ccc3F)nc12)N1CC[C@H](O)C1

1: 12.2; 2: 0.6; 3: 10.4; 4: 1.1; 5: 0.4
